- procedureSummary: yeast display, Sf9 membrane polyspecificity reagent, FACS + sequencing; frameworks hold sequencing errors
observable: polyreactivity (PSR sort gate)

Some sequences with recorded polyreactivity (PSR sort gate):
| constructSequence | polyreactivity (PSR sort gate) |
| --- | --- |
| QVQLVESGGGLVQAGGSLRLSGAASGSIFYSNAMGWSRQAPGKERELVAAITVRGGSTYYADSVKGRFTISRDNAKNTVYLQMNSLKQEDTAVYYCAAEYVSYSSYIYGYLGQGTQVTVSS | high polyreactivity |
| QVQLVESGGGLVQAGGSLRLSCAASGFIFQPYAMGWYRQAPGKERELVAAINFSGGSTYYADSVKGRFTISRDNAKNTVYLQMNSLKPEDTAVYYCARAGRYAAYSPFYYWGQGTQVTVSS | high polyreactivity |
| QVQLVESGGGLVQAGGSLRLSCAASGRTFRYNDMGWYRQAPGKERELVADITFSGGNTYYADSVKGRFTISRVNAKNTVYLQMNSLKPEDTAVYYCAKRRYYTGGMDYWVQGTQVTVSS | low polyreactivity |
| QVQLVESGGGLVQAGGSLRLSCAASGIIFYEYAMGWYRQAPGKERELVATITSGGSTNYADSVKGRFTISRDNAKNTVYLQMNSLKPEDTAVYYCNADWWWGYGYWGQGTQVTVSS | low polyreactivity |

Let us move to another entry and its polyreactivity (PSR sort gate).
Q: # input sequence: QVQLVESGGGLVQAGGSLRLSCAASGSTFTRNAMGWYRQAPGKERELVATISRSGGSTYYADSVKGRFTISRDNAKNTVYLQMNSLKPEDTAVYYCARPYQYYKFYSHDYWGQGTQVTVSS ; wanted: its polyreactivity (PSR sort gate)
Ans: high polyreactivity
